The origin of these recorded values is patent US12037324B2.

Provide the recorded EC50 for the entries that follow.
- tested.target: AGTR1 (Homo sapiens)
- Construct: host or cells: Pathunter CHO-K1 AGTR1 β-arrestin cell line (CHO-K1)
- Sequence (P30556 whole entry): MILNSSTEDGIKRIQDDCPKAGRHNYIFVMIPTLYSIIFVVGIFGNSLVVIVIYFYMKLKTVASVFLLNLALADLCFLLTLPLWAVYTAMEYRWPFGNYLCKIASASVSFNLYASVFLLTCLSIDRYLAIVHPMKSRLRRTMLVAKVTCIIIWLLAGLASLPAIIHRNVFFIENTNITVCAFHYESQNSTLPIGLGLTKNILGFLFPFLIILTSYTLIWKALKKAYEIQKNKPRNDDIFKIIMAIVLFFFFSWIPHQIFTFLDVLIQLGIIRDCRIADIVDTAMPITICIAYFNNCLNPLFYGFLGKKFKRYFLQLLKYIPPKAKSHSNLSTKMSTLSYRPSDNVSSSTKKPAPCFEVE
- assay.comment: DiscoveRx IP1 accumulation assay (HTRF), agonist mode, Pathunter CHO-K1 AGTR1 β-arrestin cell line
- Type: cell-based
- condition.info: read-out: IP-1 EC50
Report only the number, with the unit nM understood.

Given the entry CCc1nc2c(C)cc(C)nc2n1Cc1ccc(-c2cc(Oc3ncccc3Cl)ccc2-c2nn[nH]n2)cc1 , report its measured EC50.
471

# input compound: CCc1nc2c(C)cc(C)nc2n1Cc1cnc(-c2cc(-c3cccc(C)c3)ccc2C(=O)O)cn1 ; wanted: its EC50
713

I am curious: what EC50 value has been reported for CCCCOC(=O)NS(=O)(=O)c1sc(-c2ccccc2)cc1-c1ccc(Cn2c(CC)nc3c(C)cc(C)nc32)cn1 ?
132

Which EC50 is listed for CCc1nc2c(C)cc(C)nc2n1Cc1ccc(-c2cc(-c3cc(C)ccn3)ccc2C(=O)O)cc1 ?
132
